Reference for the values: ChEMBL document CHEMBL1154974

Please respond with reported ΔTm for every item in the list.
# System: Nucleic Acid
# test-details: Binding affinity to G/C-rich DNA oligonucleotide assessed as change in melting temperature by thermal denaturation assay
# Assay type: nucleic-acid assay
*1 amine or outer side, *2 acyl side, *3 side chain or, on linkers, in order; H or OH if unused. Where a SMILES comes first, the peptide text is derived from it. Bridges are numbered along the chain shown (N, C = ends). Roman numbers before positions name the chains, in order. [ ]: non-standard residue; d: D form. Actinocin(1to9) = Cc1c2oc3c(C)ccc(C(=O)[*:2])c3nc-2c(C(=O)[*:1])c(N)c1=O; NMeV = CN[C@H](C(=O)O)C(C)C; Sar = CNCC(=O)O
Give bare numbers, in °C.

Consider the following illustrative entries.
CCc1ccc(C2NCc3ccccc3-n3cccc32)cc1 (centres undefined)	0
Cc1cccn2c(=O)c3cc(C(=O)NCCc4ccccc4)c(=N)n(CCc4ccccc4)c3nc12	10
Cc1ccc(Nc2nc(N)nc(CN3CCC(Cc4ccccc4)CC3)n2)cc1	0
Cn1cc(NC(=O)c2cc(NC(=O)CNC(=N)N)cn2C)cc1C(=O)NCCC(=N)N [NETROPSIN]	0
CCc1ccc2c(C)nc(NC3=NC(C)(C)C=C(C)N3)nc2c1	0

// for each compound in input: emit ΔTm
1. CCOC(=O)Cn1c(=N)n(CCOc2cccc(C)c2)c2ccccc21
2. Cc1c2oc3c(C)ccc(C(=O)N[C@@H]4C(=O)N[C@H](C(C)C)C(=O)N5CCC[C@H]5C(=O)N(C)CC(=O)N(C)[C@@H](C(C)C)C(=O)O[C@@H]4C)c3nc-2c(C(=O)N[C@@H]2C(=O)N[C@H](C(C)C)C(=O)N3CCC[C@H]3C(=O)N(C)CC(=O)N(C)[C@@H](C(C)C)C(=O)O[C@@H]2C)c(N)c1=O [DACTINOMYCIN] (I: T[dV]P[Sar][NMeV] / II: T[dV]P[Sar][NMeV]; ester I:1-I:C, II:1-II:C; linker I:N-II:N via Actinocin(1to9))
3. CC(C)c1ccc(CNCCC(c2ccccc2)c2ccco2)cc1 (centres undefined)

# output
1. 0
2. 10
3. 0

# input Lab note: need ΔTm for CC(C)c1ccc(CNc2ccc3c(c2)ncn3C)cc1 on Nucleic Acid, anyone have it?
# output 0

* * *

Would you kindly list Binding Decrease for each of these compounds?
# Tested on: Nucleic Acid
# test-details: Binding affinity to calf thymus DNA assessed as decrease in ethidium bromide fluorescence at 10 uM by HT-FID assay
# Format: nucleic-acid assay
# experimental-parameters: Bos taurus
*1 amine or outer side, *2 acyl side, *3 side chain or, on linkers, in order; H or OH if unused. Where a SMILES comes first, the peptide text is derived from it. Bridges are numbered along the chain shown (N, C = ends). Roman numbers before positions name the chains, in order. [ ]: non-standard residue; d: D form. Actinocin(1to9) = Cc1c2oc3c(C)ccc(C(=O)[*:2])c3nc-2c(C(=O)[*:1])c(N)c1=O; NMeV = CN[C@H](C(=O)O)C(C)C; Sar = CNCC(=O)O
Answers are plain numbers, in %.

Cn1cc(NC(=O)c2cc(NC(=O)CNC(=N)N)cn2C)cc1C(=O)NCCC(=N)N	32
CCc1ccc2c(C)nc(NC3=NC(C)(C)C=C(C)N3)nc2c1	40
CC(C)c1ccc(CNCCC(c2ccccc2)c2ccco2)cc1 (centres undefined)	34
CCOC(=O)Cn1c(=N)n(CCOc2cccc(C)c2)c2ccccc21	46

Would you mind listing Binding Decrease for each of the following compounds?
1. Cc1c2oc3c(C)ccc(C(=O)N[C@@H]4C(=O)N[C@H](C(C)C)C(=O)N5CCC[C@H]5C(=O)N(C)CC(=O)N(C)[C@@H](C(C)C)C(=O)O[C@@H]4C)c3nc-2c(C(=O)N[C@@H]2C(=O)N[C@H](C(C)C)C(=O)N3CCC[C@H]3C(=O)N(C)CC(=O)N(C)[C@@H](C(C)C)C(=O)O[C@@H]2C)c(N)c1=O [DACTINOMYCIN] (I: T[dV]P[Sar][NMeV] / II: T[dV]P[Sar][NMeV]; ester I:1-I:C, II:1-II:C; linker I:N-II:N via Actinocin(1to9))
2. Cc1ccc(Nc2nc(N)nc(CN3CCC(Cc4ccccc4)CC3)n2)cc1
3. CC(C)c1ccc(CNc2ccc3c(c2)ncn3C)cc1
4. CCc1ccc(C2NCc3ccccc3-n3cccc32)cc1 (centres undefined)
5. Cc1cccn2c(=O)c3cc(C(=O)NCCc4ccccc4)c(=N)n(CCc4ccccc4)c3nc12

# output
1. 63
2. 32
3. 32
4. 36
5. 22

* * *

Provide the recorded ΔTm for the entries that follow.
# Tested on: Nucleic Acid
# test-details: Binding affinity to poly dA/dT DNA assessed as change in melting temperature by thermal denaturation assay
# Format: nucleic-acid assay
*1 amine or outer side, *2 acyl side, *3 side chain or, on linkers, in order; H or OH if unused. Where a SMILES comes first, the peptide text is derived from it. Bridges are numbered along the chain shown (N, C = ends). Roman numbers before positions name the chains, in order. [ ]: non-standard residue; d: D form. Actinocin(1to9) = Cc1c2oc3c(C)ccc(C(=O)[*:2])c3nc-2c(C(=O)[*:1])c(N)c1=O; NMeV = CN[C@H](C(=O)O)C(C)C; Sar = CNCC(=O)O

Consider the worked cases shown below.
Cc1c2oc3c(C)ccc(C(=O)N[C@@H]4C(=O)N[C@H](C(C)C)C(=O)N5CCC[C@H]5C(=O)N(C)CC(=O)N(C)[C@@H](C(C)C)C(=O)O[C@@H]4C)c3nc-2c(C(=O)N[C@@H]2C(=O)N[C@H](C(C)C)C(=O)N3CCC[C@H]3C(=O)N(C)CC(=O)N(C)[C@@H](C(C)C)C(=O)O[C@@H]2C)c(N)c1=O [DACTINOMYCIN] (I: T[dV]P[Sar][NMeV] / II: T[dV]P[Sar][NMeV]; ester I:1-I:C, II:1-II:C; linker I:N-II:N via Actinocin(1to9))	> 45 °C
CCc1ccc(C2NCc3ccccc3-n3cccc32)cc1 (centres undefined)	> 45 °C
Cc1ccc(Nc2nc(N)nc(CN3CCC(Cc4ccccc4)CC3)n2)cc1	> 45 °C

State the recorded ΔTm for every item in the following list.
1. CCOC(=O)Cn1c(=N)n(CCOc2cccc(C)c2)c2ccccc21
2. CC(C)c1ccc(CNCCC(c2ccccc2)c2ccco2)cc1 (centres undefined)
3. Cc1cccn2c(=O)c3cc(C(=O)NCCc4ccccc4)c(=N)n(CCc4ccccc4)c3nc12

# output
1: > 45 °C; 2: > 45 °C; 3: 0 °C

Dear colleague, could you send me ΔTm for each of the items below? Thanks.
1. CCc1ccc2c(C)nc(NC3=NC(C)(C)C=C(C)N3)nc2c1
2. CC(C)c1ccc(CNc2ccc3c(c2)ncn3C)cc1
3. Cn1cc(NC(=O)c2cc(NC(=O)CNC(=N)N)cn2C)cc1C(=O)NCCC(=N)N [NETROPSIN]

# output
1: 10 °C; 2: > 45 °C; 3: 45 °C

* * *

Kindly state log10(CC50) for each of the entries shown.
# test-details: Cytotoxicity against human SF-767 cells assessed as viable cells after 72 hrs by MTT assay
# Format: functional
# experimental-parameters: SF767, 72 h, read-out: LC50 (the source's name)
// units: µM (pre-log); metric: CC50; scale: log10

Please review the following examples before continuing.
CC(C)c1ccc(CNCCC(c2ccccc2)c2ccco2)cc1 (configuration not stated)	1.11
Cc1ccc(Nc2nc(N)nc(CN3CCC(Cc4ccccc4)CC3)n2)cc1	1.41
CCc1ccc2c(C)nc(NC3=NC(C)(C)C=C(C)N3)nc2c1	0.41

Each of the following entries comes with a recorded value; kindly state log10(CC50) for each.
1. CCc1ccc(C2NCc3ccccc3-n3cccc32)cc1 (configuration not stated)
2. CC(C)c1ccc(CNc2ccc3c(c2)ncn3C)cc1

# output
1.54
1.00

* * *

# Test system: Nucleic Acid
# test-details: Binding affinity to calf thymus DNA assessed as decrease in ethidium bromide fluorescence by FID assay
# Type: nucleic-acid assay, Bos taurus
*1 amine or outer side, *2 acyl side, *3 side chain or, on linkers, in order; H or OH if unused. Where a SMILES comes first, the peptide text is derived from it. Bridges are numbered along the chain shown (N, C = ends). Roman numbers before positions name the chains, in order. [ ]: non-standard residue; d: D form. Actinocin(1to9) = Cc1c2oc3c(C)ccc(C(=O)[*:2])c3nc-2c(C(=O)[*:1])c(N)c1=O; NMeV = CN[C@H](C(=O)O)C(C)C; Sar = CNCC(=O)O
# label = yes (1) if EC50 < 8 µM else no (0)

Example entries and their recorded answers appear below.
CCOC(=O)Cn1c(=N)n(CCOc2cccc(C)c2)c2ccccc21	yes (1)
Cc1ccc(Nc2nc(N)nc(CN3CCC(Cc4ccccc4)CC3)n2)cc1	yes (1)
CC(C)c1ccc(CNc2ccc3c(c2)ncn3C)cc1	yes (1)
Cc1cccn2c(=O)c3cc(C(=O)NCCc4ccccc4)c(=N)n(CCc4ccccc4)c3nc12	yes (1)
CC(C)c1ccc(CNCCC(c2ccccc2)c2ccco2)cc1 (centres undefined)	no (0)
CCc1ccc(C2NCc3ccccc3-n3cccc32)cc1 (centres undefined)	no (0)
CCc1ccc2c(C)nc(NC3=NC(C)(C)C=C(C)N3)nc2c1	yes (1)
Cn1cc(NC(=O)c2cc(NC(=O)CNC(=N)N)cn2C)cc1C(=O)NCCC(=N)N [NETROPSIN]	yes (1)

Turning to the following compound.
# input Lab log: compare recorded EC50 with 8 µM; is it strictly lower for Cc1c2oc3c(C)ccc(C(=O)N[C@@H]4C(=O)N[C@H](C(C)C)C(=O)N5CCC[C@H]5C(=O)N(C)CC(=O)N(C)[C@@H](C(C)C)C(=O)O[C@@H]4C)c3nc-2c(C(=O)N[C@@H]2C(=O)N[C@H](C(C)C)C(=O)N3CCC[C@H]3C(=O)N(C)CC(=O)N(C)[C@@H](C(C)C)C(=O)O[C@@H]2C)c(N)c1=O [DACTINOMYCIN] (I: T[dV]P[Sar][NMeV] / II: T[dV]P[Sar][NMeV]; ester I:1-I:C, II:1-II:C; linker I:N-II:N via Actinocin(1to9)) ?
# output yes (1)
